TARGET_OF_ASSAY: RSV F on RSV-A2 virus (Respiratory syncytial virus (RSV-A2))
PROCEDURE_SUMMARY: cell-based or functional assay
Each entry below carries its recorded Neutralization IC50 (RSV subtype A).
METRIC: Neutralization IC50 (RSV subtype A)

1. ADI-41344 (antibody, V domains shown) VH: EVQLVESGGGLVKPGGSLRLSCAASGSSFSSYYMNWVRQAPGKGLEWVSSISSSSTYIDYADSVKGRFTISRDNAKNSLFLQMNSLRAEDTAVYYCARVSSPMIRGYYLDYWGQGTLVTVSS VL: QPVLTQPPSVSGAPGQRVTISCTGSSSNIGAGYDVHWYQQLPGTAPKLVIHGNSNRPSGVPDRFSGSKSGTSASLAITGLQGEDEADYYCQSYDSSLSGSVFGGGTKLTVL: 0.0637 µg/mL
2. ADI-41291 (antibody, V domains shown) VH: QVQLQQWGAGLLKPSETLSLTCVVYGESFSDSGYYWTWIRQPPEKGLEWIGEINHGGSTSYNPSLKSRVTISVDTSENQFSLKVTSVTGADTAVYYCARLRLGCSGGSCYSRFDYWGQGTLVTVSS VL: DIQLTQSPSSLSASVGDRVTITCRASQSINSYLNWYQQKPGKAPVLLIHAASSLQGGVPSRFSGSGSGTDFTLTISSLQPEDFATYYCQQSYNTRWTFGHGTKVDIK: > 25 µg/mL
3. ADI-41244 (antibody, V domains shown) VH: QVTLKESGGGLIQPGGSLRLSCAVSGFTVSSKYMSWVRQAPGKGLEWVSVIYGGGSTYYTDSVKGRFTISRDNSNNTLYLQMNSLRAEDTAIYYCAREARSYNYDYVGNDAFDIWGQGTTVTVSS VL: DIVLTQTPDSLAVSLGERATINCKSSQSVLNNFNNKNYLAWYQQKPGQPPKLLIYWASTRESGVPDRFSGSGSGTDFTLTITSLQAEDVAIYYCQQYYRTPPYTFGQGTKVDIK: > 25 µg/mL
4. ADI-41240 (antibody, V domains shown) VH: QVQLQQWGAGLLKPSETLSLICDVYGGSFSDYYWSWIRQSPGKGLEWIGEINHSGSTSFHPSLKSRISISIDTSNNQFSLNLSSMTAADTAVYYCARGTLRGYFDYWGQGTLVTVSS VL: EIVLTQSPSTLSAFVGDRVTITCRASQSISRWLAWYQQKPGKAPNLLISEASSLESGVPSRFSGSGSGTEFTLTISSLQPDDLGTYYCQQYNGYLWTFGQGTKVEIK: > 25 µg/mL
5. ADI-41265 (antibody, V domains shown) VH: EVQLVQSGAEVKKPGESLTISCKDSGYSFTSYWIGWVRQVPGKGLEWMGIVYPGDSRYSPSFQGHVTMSADKSINTAYLQWSTLKASDTAMYYCAKVVTYGSAIRWFESWGQGTLVTVSS VL: QSVLTQPPSVSAAPGQKVSISCSGSSSNIGNNFVSWYQQVPGTAPKLLIIDNNKRPSGIPDRFSGSKSGTSATLGITGLQTGDEADYYCGTWDSRLSAEVFGGGTKLTVL: > 25 µg/mL
6. ADI-41283 (antibody, V domains shown) VH: QVTLKESGPTLVKPTQTLTLTCTFSGFSLSTFGVAVGWIRQPPGKALEWLALIYWDDDKRYSPSLKSRLTITKDISKNQVVLTMTNMDPVDTATYYCAHRLRSLTARGVFDIWGQGTTVTVSS VL: DIRLTQSPSSLSASVGDRVTITCRASQSINNFLNWYQQRPGKAPTLLIYSASSLQSGVPSRFSGSGSGTDFTLTISSLQPEDFATYFCQQTDSFPWTFGQGTKVEIK: > 25 µg/mL
7. ADI-41263 (antibody, V domains shown) VH: QVQLVQSGAEVKKPGASVKVYCKASGYTFTSHYIHWVRQAPGQGLEWMGRMNPSGGSPMYAQKFQERVTMTRDTSTSTAYMELRSLRSEDTAVYYCAMAKFYSFDYWGQGTLVTVSS VL: QSVLTQPHSVSESPGKTVTISCTRSSGSIASYFVHWYQQRPGSAPTIVIYEDNQRPSGVPDRFSGSIDSSSNSASLTISGLKTEDEADYYCQSYDSSNWVFGGGTKLTVL: > 25 µg/mL
8. ADI-41268 (antibody, V domains shown) VH: EVQLVESGGGLVKPGGSLRLSCVASGFGFTSYSMNWVRQAPGKGLEWVSSISASSTYIHYADSVKGRFTISRDNARNSLYLQMISLRADDTAVYYCSRDGPTYGSGVHVWGQGTMVTVSS VL: QSALIQPVSVSGSPGQSITISCTGTRSDVGGYNYVSWYQQHPGKAPKLMIYEVRNRPSGVSDRFSGSKSGNTASLTISGLQAEDEGDYYCSSYTSSDTLFYVFGSGTKLTVL: 0.177 µg/mL
9. ADI-41306 (antibody, V domains shown) VH: QVQLVESGPRLVKPSQTLSLTCTVSGGSIYRGDYDWNWIRQPPGKGLEWIGYISYTGNTHYNSSLKSRLSISADTSGTHFSLKLSSVTAADTAIYYCARDVGYGGNAAHYYYYAMDVWGQGTTVTVSS VL: ETTLTQSPATLSLSPGERATLSCRASQSVGSSLAWYQQKVGQAPRLLIYDASSRVTGIPARFSGSGSGTDFTLTISSLEPGDFAVYYCQQRSNSLTFGGGTKVEIK: 0.173 µg/mL
10. ADI-41304 (antibody, V domains shown) VH: EVQLVESGPGLVKPSQTLSLTCTVSGGSIRSHDYYWSWIRQPPGKGLEWIGYSYYSGSTYYNPSLKSRVIISLDTSKNQFSLNLTSVTAADTAMYYCARDRPHTSSWIPGWFDPWGQGTLVTVSS VL: SYELTQPPSASGTPGQRVTISCSGSSSNIGSNTVSWYQQFPGKAPKLLIYSNNERPSGGPDRFSGSKSGTSASLAIGGLQSEDEANYYCAAWDDSLYAVVFGGGTKLTVL: > 25 µg/mL
